B1: NCF4 (parent)
chain: FVKILKDFPEEDDPTNWLRCYYYE

# Variants of: B1
# assay_details: protein stability index of a GFP-peptide fusion (GPS, HEK-293T) (PSI 1-6); higher = more stable;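 further: lentivirally expressed fusions sorted by FACS into six bins by GFP to DsRed ratio, PSI derived from sequencing read proportions per bin multiplied by bin number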
# condition_label: c terminus: a fixed tail appended
Grouping key: protein stability index. Bins: class 1 = under 2, class 2 = from 2 up to 3, class 3 = 3 and over

{"variant_annotation": "F1K", "category": "class 2"}
{"variant_annotation": "F8G", "category": "class 1"}

[in] // return the class label for Y22E
[out] class 2

[in] // return the class label for L18C
[out] class 1
